B1: SETD8 (parent)
chain: KKAQGKTQQNRKLTDFYPVRRSSR

Variants of: B1
protocolNotes: protein stability index of a GFP-peptide fusion (GPS, HEK-293T) (PSI 1-6); higher = more stable;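 note: lentivirally expressed fusions sorted by FACS into six bins by GFP to DsRed ratio, PSI derived from sequencing read proportions per bin multiplied by bin number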
recordedConditions: c terminus: a fixed tail appended
Response field class: string, computed from recorded protein stability index by ranges group 1 = under 2, group 2 = from 2 up to 3, group 3 = 3 and over

Which bin, given its protein stability index, does KKAQGKTQQNRKLTFFYPVRRSSR [D15F] occupy? group 2

Just checking, what class would you give KKAQGKTAQNRKLTDFYPVRRSSR [Q8A] here? group 2

Kindly state the category for this variant: KKAQGKTQQNRKLTDFYPVQRSSR [R20Q] group 3

Exercise: read the entry KKAQGKTQQNRKLTHFYPVRRSSR [D15H] and state which class it falls under. group 2

The entry to classify is KNAQGKTQQNRKLTDFYPVRRSSR [K2N] ; which class holds it? group 2

Category of KKAQGKTQQNRKLTDQYPVRRSSR [F16Q] , please. group 1

Tag the class for KKAQGKTQQNVKLTDFYPVRRSSR [R11V] group 1

Using the reported protein stability index, which band applies to KKAQGKTQQNRKLTDFYPYRRSSR [V19Y] ? group 3

Entry KPAQGKTQQNRKLTDFYPVRRSSR [K2P] belongs to which category? group 2

Kindly identify the class of KKAQGKTQQNRHLTDFYPVRRSSR [K12H] . group 1

Entry KKAQGKTQQNRKLTDFYMVRRSSR [P18M] belongs to which category? group 3

Each recorded value in this set is attributed to the supplement of paper PMC10567573.
